# System: IGROV-1
# ASSAY_NOTES: NCI tumour cell line growth inhibition, 48 h
Calls of active or inactive are those of the source. Rule as the data show it: active = GI50 up to about 1.1 µM and inactive = higher.
ASSAY_METRIC: GI50

The compound `CN(COC(=O)c1ccccc1)c1nc(N(C)COC(=O)c2ccccc2)nc(N(C)COC(=O)c2ccccc2)n1` on IGROV-1: GI50 was 28.8 µM (inactive)

Here `O=C(O)c1cc(O)nc(SCc2ccccc2)n1` was tested on IGROV-1, and its GI50 came to > 100 µM (inactive)

// returns GI50 for `COc1ccc(CCc2cc(OC)cc(OC)c2)cc1` with IGROV-1; value = 43 µM (inactive)

Value (GI50, IGROV-1) for record `Cc1c(-c2ccccc2)n(C)c2cn[nH]c(=O)c12` = 70 µM (inactive)

----------
# Tested on: MCF7
# ASSAY_NOTES: NCI tumour cell line growth inhibition, 48 h
Active and inactive are the calls of the source. Cut-off read from the data, not from the text of the source: active = GI50 up to about 1.1 µM and inactive = higher.
Kindly supply the reported GI50 values for the records listed here.

Measured on MCF7, `COc1cc(CNc2nc3ccccc3n2Cc2ccccc2)cc(CN2CCOCC2)c1O` has a documented GI50 of 31.7 µM (inactive)

Field GI50 (system: MCF7) for entry `CCc1ccc(/C=C\c2cc(OC)c(OC)c(OC)c2)cc1` = 0.0375 µM (active)

Recorded GI50 for Clc1ccc2c(c1)CC1C[N+]3=C(CCCCC3)C1=C2 (stereo not drawn) on MCF7 was 64 µM (inactive)

----------
# System: HL-60
# ASSAY_NOTES: NCI tumour cell line growth inhibition, 48 h
Calls of active or inactive are those of the source. Cut-off read from the data, not from the text of the source: active = GI50 up to about 1.1 µM and inactive = higher.
ASSAY_METRIC: GI50

Readout GI50 for `CC(C)S(=O)(=O)ON1C(=O)c2ccc([N+](=O)[O-])cc2C1=O` , test system HL-60, was > 100 µM (inactive)

Entry `Nc1cc2nc(O)c(O)nc2cc1N` , tested on HL-60, has a reported GI50 of > 100 µM (inactive)

Field GI50 (HL-60), entry CCCCCCCSCC1C(=O)C23C(O)C1CCC2C12COC3(O)C(O)C1C(C)(C)CCC2O (stereo not given) : 3.96 µM (inactive)

Value (GI50, HL-60) for record `Cc1nc(-c2cc3cc(Cl)ccc3oc2=O)cc2c1c(=O)oc1ccc(Cl)cc12` = > 100 µM (inactive)

Lab entry: HL-60 assay, compound `O=[As]O` , GI50 = 9.82 µM (inactive)

The measured GI50 that `COc1ccc(CCc2cc(OC)cc(OC)c2)cc1` showed for HL-60 is 8.69 µM (inactive)

Assay HL-60, sample CC1(C)C2CCC3(OCCO3)C1C(O)C2 (stereo not given) , GI50 read: > 100 µM (inactive)

# value of GI50, HL-60, item CCN(CC)CCCCC1CCN(CC(=O)N2c3ccccc3NC(=O)CC2C)CC1 (stereo not given) = 64.1 µM (inactive)

Readout GI50 for CC1CC(NN(C)C)C2(C(N)=O)C(N)=NC(=O)C12C#N (stereo not given) , test system HL-60, was > 10 µM (inactive)

Log: HL-60, compound CC(NC(=O)Cc1ccccc1)NC(=O)C(C)C(=O)NCc1ccccc1 (stereo not given) , GI50 = > 100 µM (inactive)

The reported HL-60 GI50 of `COc1cc(/C=N/n2c(-c3ccccc3)nn(C(C)=O)c2=O)cc(OC)c1OC` is 0.745 µM (active)

Entry Cc1ccc(NC(c2ccccc2)P(=O)(c2ccccc2)c2ccccc2)cc1 (stereo not given) , tested on HL-60, has a reported GI50 of 34 µM (inactive)

`CCCCCCCCCCCCCCCCOC(=O)c1cc(O)cc(C(=O)OCCCCCCCCCCCCCCCC)c1` tested on HL-60 gave GI50: > 100 µM (inactive)

GET /values?item= COC(=O)C(Cc1ccccc1)NP(=O)(O)OCC1OC(n2cc(Br)c(=O)[nH]c2=O)CC1O (stereo not given) &system= HL-60 returns GI50: > 100 µM (inactive)

Summary: `CC(=O)Nc1ccc(-c2nc3ccccc3s2)cc1Cl` , HL-60, GI50 = > 100 µM (inactive)

The reported HL-60 GI50 of O=C(CC(C(=O)c1ccsc1)c1cccs1)c1ccsc1 (stereo not given) is 31.8 µM (inactive)

The measured GI50 that `CCCCOC(=O)NC(=O)c1cn(CCCOC(=O)NCCCCCCNC(=O)OCCCn2cc(C(=O)NC(=O)OCCCC)c(=O)[nH]c2=O)c(=O)[nH]c1=O` showed for HL-60 is > 100 µM (inactive)

// assay HL-60, entry Cc1cc(=O)oc2c(CNC(Cc3ccccc3)C(=O)O)c(O)ccc12 (stereo not given) , GI50 value = > 100 µM (inactive)

Value (GI50, HL-60) for record `CC(C)O/N=C/c1cc(NC(=S)OC(C)C)ccc1Cl` = 20.4 µM (inactive)

Entry `COc1ccc([C@@H]2CC(=O)NCCCCNCCCN2)cc1` , tested on HL-60, has a reported GI50 of > 100 µM (inactive)

# value of GI50, HL-60, item `NS(=O)(=O)c1ccc(NC(=S)NC=C2C(=O)c3ccccc3C2=O)cc1` = > 100 µM (inactive)

The reported HL-60 GI50 of `CC(C)(CN1CCCCC1)C(=O)/C=C/c1ccc(Br)cc1` is 2.4 µM (inactive)

Bench note, HL-60: `CC1=C(C(=O)Nc2ccc(Cl)c(Cl)c2)C(c2ccco2)C(C(=O)Nc2ccc(Cl)c(Cl)c2)=C(C)N1` , GI50 reads 19.3 µM (inactive)

Field GI50 (system: HL-60) for entry `CC[C@@H]1CC[C@@H]2[C@H](CC[C@]3(C)[C@@H](O)CC[C@@H]23)[C@H]1C(=O)O` = > 100 µM (inactive)

Noted GI50 for CCCC/C=C1\CCC(C)(CN(C)C)C1=O (stereo not given) , tested on HL-60: 55.5 µM (inactive)

----------
# Test system: EKVX
# ASSAY_NOTES: NCI tumour cell line growth inhibition, 48 h
Active and inactive are the calls of the source. No stated cut-off is given here; in the data, active = GI50 up to about 1.1 µM and inactive = higher.
Provide the reported GI50 of each item.

The reported GI50 value, EKVX, for `CSC(=S)NN=C1CCCCC1` reads 22.8 µM (inactive)

Measured on EKVX, `CC(C)O/N=C/c1cc(NC(=S)OC(C)C)ccc1Cl` has a documented GI50 of 19.1 µM (inactive)

// GI50 (EKVX) for Cc1ccc(S(=O)(=O)N/N=C2\CC3C4C=CC3C2C4)cc1 (stereo not drawn) = > 100 µM (inactive)

// GI50 (EKVX) for `CCOc1ccc2c(c1)C(/C(C(Cl)=C(Cl)Cl)=[N+](/[O-])OC(=O)c1ccccc1)=N2` = 15.4 µM (inactive)

# `Cc1c(-c2ccccc2)n(C)c2cn[nH]c(=O)c12` with EKVX: GI50 is 18.1 µM (inactive)

Assay EKVX, sample O=C1C2C3C=C4c5ccccc5N(c5ccccc5)C4(C2C(=O)N1c1ccc(Br)cc1)[C@H]1C(=O)N(c2ccc(Br)cc2)C(=O)[C@@H]31 (stereo partly drawn) , GI50 read: > 100 µM (inactive)

Field GI50 (EKVX), entry COC1OC(C)C(OCc2ccccc2)C(OS(=O)(=O)c2ccc(C)cc2)C1OS(=O)(=O)c1ccc(C)cc1 (stereo not drawn) : > 100 µM (inactive)

So the reported GI50 for COc1cc(-c2cc(=O)c3c(OC)c(OC)c(OC)c(OC)c3o2)cc(OC)c1OC [HEPATAMETHOXYFLAVONE] , on EKVX, turned out to be 48.4 µM (inactive)

// compound `CCOC(=O)/C(C#N)=C/c1ccnc2ccccc12` , assay EKVX, GI50 value: > 100 µM (inactive)

Short answer on EKVX for `Cc1cc2c(C(C)C)c(O)c(O)c(/C=N/c3ccccc3)c2c(O)c1-c1c(C)cc2c(C(C)C)c(O)c(O)c(/C=N/c3ccccc3)c2c1O` , GI50: > 100 µM (inactive)

Reading of GI50 for COc1ccc2c(c1)N(C(C)=O)CN1C(=O)CCC21 (stereo not drawn) with EKVX: > 100 µM (inactive)

Form: item COc1ccc(NC(=O)C2=C(SC)C(C#N)C(=O)N=C2N)cc1 (stereo not drawn) ; test system EKVX; GI50: > 100 µM (inactive)

# lookup: CC(NC(=O)Cc1ccccc1)NC(=O)C(C)C(=O)NCc1ccccc1 (stereo not drawn) on EKVX, GI50 = > 100 µM (inactive)

Recorded GI50 for `C=C(CS(=O)(=O)c1ccccc1)C(=O)OCC` on EKVX was 19.7 µM (inactive)

Measured GI50 (EKVX), entry `C#CCOCn1cnc2c(S)ncnc21` : > 100 µM (inactive)

Noted GI50 for `Clc1nc(-c2ccccc2)nc(Cl)c1Cl` , tested on EKVX: 16.2 µM (inactive)

Observed GI50 on EKVX, entry `O=C(Nc1ccc(Br)c2ccccc12)c1ccc2ccccc2c1O` , equals 3.13 µM (inactive)

Measured GI50 (EKVX), entry O=C1CSC(c2ccccc2O)N1c1ccc(Oc2ccc(Cl)cc2)c(Cl)c1 (stereo not drawn) : 16.8 µM (inactive)
